- ASSAY_PROCEDURE: yeast display, Sf9 membrane polyspecificity reagent, FACS + sequencing; frameworks hold sequencing errors
METRIC_NAME: polyreactivity (PSR sort gate)

{"columns": ["ENTRY_SEQUENCE", "RESULT"],
 "data": [
  ["QVQLVESGGGLDQAGGSLRLSCAASGITFLDNDMGWYRQAPGKERELVAAINSGVSTYYADSVKGRFTISLDNAKNTVYLQMNSLKPEDTAVYYCAADRPDVAGDYWGQGTQVTVSS", "low polyreactivity"],
  ["QVQLVESGGGLVQAGGSLRLSCADSVSIVGYYTMGWYRQAPWKARELVSGITSTGNTNYADSVKGRFTISRDNAKNTVYLHMNSLKPEHTAVYYCAADSESTWDFGWELEVGYDYWGQGTQVNVSS", "low polyreactivity"],
  ["QVQLVESGGGLVQAGGSLRLSCAASGFTFQGYVMGWYRQAPGKERELVARITNDGSTTYADSVKGRFTISRDNAKNTVYLQMNSLKPEDTAVYYCDRPYRFWRYYGMYYWGQGTQVTVSS", "high polyreactivity"],
  ["QVQLVESGGRLVQAGGSLRLSCAASGFIFQYYTMGWYRQAPGKERELVAGISRSGGSTYYADSVKGRFTISRDNAKNTVYLQMNSLKPEDTAVYYCAAKIRTSDMGYWGQGTQVTVSS", "high polyreactivity"],
  ["QVQLVESGGGLVQAGGSLRLSCAASGFTFQRYAMGWYRQAPGKERELVATINWSGRTYYADSVNGRFTISRDNAKNTVYLQMNSLKPEDTAVYYCAAERIQYGWWVLFDYWGQGTQVTVSS", "high polyreactivity"],
  ["QVQLVESGGGLLQARGSLRLTCAASGIIFIKYAMGWYRQPPGKDRELVASSTSGGSTHYADSVKGRFTISRDNAKNTVYLQMNSLIPEETSVYYCNADILRHDAYFKDRYQAGSYWGLGTQVTVSS", "low polyreactivity"],
  ["QVQLVESGGGLVQAGGSLRLSCAASAFIFRYYAIGGYRQAPGNERELVAAIARSGGSTYYADSVKGRFTISRDNAKNTVYLQMNSLKPEVTAVYYCNRGDVIGRQYDSAYGYWGQGTQVTVSS", "high polyreactivity"],
  ["QVQLVESGGGLVQAGGSLRLSCAASGRTLRLYAMGWSRQAPGKERELVAAISSRGRTYYADSVKGRFTISRDNAKNTVYLQMNSLKPEDTAVYYCNTAQFLREDYWGQGTQVTVSS", "high polyreactivity"],
  ["QVQLVESGGGLVQAGGSLRLSCAASGSIFYYYAMGWYRQAPGKERELVAGITVSGGRTYYADSVKGRFTISRDNAKNTVYLQMNSLKPEDTAVYYCAADGRAKYDYWGQGTQVTVSS", "low polyreactivity"],
  ["QVQLVESGGGLVQAGGSLRLSCAASGSIFRHNAMGGYRQSPGKERELVAAISRRASSTYYADSVKGRFTISRDNAKNTVYLQLNSLKPEDTAVYYCAVVPSTTYHAYDYWGQGTQVTVSS", "high polyreactivity"],
  ["QVQLVESGGGLVQAGGSLRLSCAASGIIFQYYAMGWYRQAPGKERELVAAISWSGGSTYYADSVKGRFTISRDNAKNTVYLQMNRLKPEDTAVYYCAARSRSYWPYEGDYWGQGTQVTVSS", "low polyreactivity"]
]}
